Target: recombinant full-length human prolyl endopeptidase (PREP) (Homo sapiens)
Construct: To recombinant full-length human prolyl endopeptidase (PREP, R&D-Systems, 4308-SE)
Sequence (P48147 1-710): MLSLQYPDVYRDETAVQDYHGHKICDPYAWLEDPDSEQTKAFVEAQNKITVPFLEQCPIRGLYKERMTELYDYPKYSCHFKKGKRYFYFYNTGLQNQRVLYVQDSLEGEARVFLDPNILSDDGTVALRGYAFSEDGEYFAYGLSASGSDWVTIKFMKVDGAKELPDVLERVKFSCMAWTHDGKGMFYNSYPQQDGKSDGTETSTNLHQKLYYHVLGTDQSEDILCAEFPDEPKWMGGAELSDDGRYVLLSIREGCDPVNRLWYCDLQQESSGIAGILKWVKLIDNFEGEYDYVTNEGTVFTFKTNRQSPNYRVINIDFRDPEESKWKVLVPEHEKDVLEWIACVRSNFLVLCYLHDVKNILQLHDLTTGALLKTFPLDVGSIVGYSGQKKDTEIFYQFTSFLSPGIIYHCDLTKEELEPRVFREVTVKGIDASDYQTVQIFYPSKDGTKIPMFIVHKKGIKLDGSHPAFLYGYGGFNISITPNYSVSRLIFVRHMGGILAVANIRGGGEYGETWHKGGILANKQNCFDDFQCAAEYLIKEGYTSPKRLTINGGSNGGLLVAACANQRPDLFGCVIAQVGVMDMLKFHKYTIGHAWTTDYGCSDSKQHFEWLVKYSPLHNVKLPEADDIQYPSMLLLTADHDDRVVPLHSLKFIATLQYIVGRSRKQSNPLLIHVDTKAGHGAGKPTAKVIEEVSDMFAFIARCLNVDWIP
Experiment: Biochemical human prolyl endopeptidase (PREP) assay with fluorescently labelled substrate
Conditions: substrate Z-Gly-Pro-AMC 50 μM, 32° C., 60 min; some as mean values from multiple independent determinations
pIC50: −log10 of the molar value.
# pIC50 annotations
readout_type: pIC50

> print(dat)
                                   compound  readout.type  number
1  COc1ccc(Cn2nc3n(c2=O)C(C(=O)N2CCCC2)CCC3)cc1Cl (racemic) [Example 46]         pIC50    9.02
2  O=C([C@@H]1CCCc2nn(Cc3cccc(C(F)(F)F)n3)c(=O)n21)N1CCC(F)(F)C1 [Example 368]         pIC50    8.05
3  Cc1ccccc1Cn1nc2n(c1=O)C(C(=O)N1CCCC1)CCC2 (racemic) [Example 58]         pIC50    8.40
4  O=C(C1CC(C(F)(F)F)Cc2nn(Cc3ncc(F)cc3F)c(=O)n21)N1CCC(F)(F)C1 (single isomer, unassigned) [Example 574]         pIC50    8.28
5  O=C(C1CCC(C(F)(F)F)c2nn(Cc3ncccc3F)c(=O)n21)N1C[C@@H](F)[C@@H](F)C1 (mixture of isomers) [Example 274]         pIC50    8.23
6  O=C([C@@H]1CCCc2nn(Cc3cc(F)c(F)cc3F)c(=O)n21)N1C[C@@H](F)[C@@H](F)C1 [Example 492]         pIC50    9.28
7  O=C([C@@H]1CCCc2nn(Cc3cncc(Br)c3)c(=O)n21)N1CC[C@H](F)C1 [Example 509]         pIC50    9.15
